Test: chemical genetic growth profiling, strain panel (AID 1159580);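 further: tested at 20 µM; growth read once vehicle control cultures reached saturation at 30 °C; 1 = growth at the plate median or of vehicle wells; lower values mean less growth of the strain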
Conditions: S. cerevisiae deletion strains, growth OD, locus YKL085W, strain MDH1 (second series)
Hit rate of the full screen: of about 5,500 compounds, about 2,000 (36%) were called active. About 18% were inconclusive and are not listed. No stated cut-off is given here; in the data, active means normalized growth mostly below about 0.91 (no sharp cut-off); inconclusive means no clear call, values can overlap the other calls; inactive means mostly above about 0.92. The list shows a part of the results.
Outcome codes: 1 (yes) for active, 0 (no) for inactive

[[record]]
compound = "C[N+](C)(C)CC(=O)[O-]"
cat = "0 (no)"

[[record]]
compound = "COc1ccc(-c2coc3c(OC)c(OC)ccc3c2=O)cc1"
cat = "0 (no)"

[[record]]
compound = "CCC1(C)CC(=O)NC1=O (stereo not drawn)"
cat = "0 (no)"

[[record]]
compound = "NC(=O)c1ncn([C@@H]2O[C@H](CO)[C@@H](O)[C@H]2O)c1O"
cat = "0 (no)"

[[record]]
compound = "Cc1ccc2c(c1)CC[C@H]1CC(=O)CC[C@]21C"
cat = "0 (no)"

[[record]]
compound = "Cc1cc(C(C)(C)CC(C)(C)C)ccc1OCCOCC[N+](C)(C)Cc1ccccc1"
cat = "1 (yes)"

[[record]]
compound = "CCC1(c2ccccc2)C(=O)NCNC1=O"
cat = "0 (no)"

[[record]]
compound = "CCC(C(=O)O)c1ccccc1 (stereo not drawn)"
cat = "0 (no)"

[[record]]
compound = "CN1Cc2c(ccc3c2OCO3)C2C(O)Cc3cc4c(cc3C21)OCO4 (stereo not drawn)"
cat = "0 (no)"

[[record]]
compound = "COc1c2c(c(CC=C(C)C)c3oc(=O)c(-c4ccc(O)cc4)c(O)c13)OC(C)(C)C=C2"
cat = "1 (yes)"

[[record]]
compound = "O=[N+]([O-])O[C@H]1CO[C@H]2[C@@H]1OC[C@H]2O[N+](=O)[O-]"
cat = "0 (no)"

[[record]]
compound = "COc1ccc(-c2coc3c(O)c(OC)ccc3c2=O)cc1"
cat = "0 (no)"

[[record]]
compound = "COC(=O)C1[C@H]2C[C@H]3c4[nH]c5ccccc5c4CCN3C[C@@H]2CC[C@@H]1O (stereo partly drawn)"
cat = "0 (no)"

[[record]]
compound = "COc1ccc(-c2coc3c(OC)c(O)ccc3c2=O)cc1"
cat = "0 (no)"

[[record]]
compound = "COc1ccc(-c2coc3c(OC)c(OC)cc(OC)c3c2=O)cc1"
cat = "0 (no)"

[[record]]
compound = "O=C(O)COc1cc(Cl)c(Cl)cc1Cl"
cat = "0 (no)"

[[record]]
compound = "COc1ccc2c(c1)[C@@]1(C)CCC(=O)C[C@H]1CC2"
cat = "0 (no)"

[[record]]
compound = "CC(C(=O)O)c1ccc2c(c1)[nH]c1ccc(Cl)cc12 (stereo not drawn)"
cat = "0 (no)"

[[record]]
compound = "CCCCCCCCCCCCC[N+](C)(C)Cc1ccccc1"
cat = "1 (yes)"

[[record]]
compound = "COc1ccc(-c2c(O)c3cc4c(c(CC=C(C)C)c3oc2=O)OC(C)(C)CC4)cc1"
cat = "0 (no)"

[[record]]
compound = "COC(=O)COc1cc(Cl)c(Cl)cc1Cl"
cat = "0 (no)"

[[record]]
compound = "Cn1cc[nH]c1=S"
cat = "0 (no)"

[[record]]
compound = "COc1cc2c(cc1OC)C(=O)C(CC1CCN(Cc3ccccc3)CC1)C2 (stereo not drawn)"
cat = "0 (no)"

